I'd appreciate it if you could supply t½ values for the items below.
# EXPERIMENTAL_SYSTEM: T1, monkey IL-25 expressed with a C-terminal myc-myc-hexahistidine tag (M. fascicularis (cynomolgus monkey))
# T1 construct: also called monkey IL-25-MMH; MfIL-25-MMH
# T1 chain: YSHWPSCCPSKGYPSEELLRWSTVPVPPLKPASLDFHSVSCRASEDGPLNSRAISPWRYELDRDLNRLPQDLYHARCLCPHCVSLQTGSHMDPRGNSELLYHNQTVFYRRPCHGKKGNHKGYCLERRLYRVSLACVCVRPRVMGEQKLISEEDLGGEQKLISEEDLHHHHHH
# ASSAY_TEXT: SPR Biacore, captured mAb, 25°C;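 also: Real-time surface plasmon resonance on a Biacore 4000, with IL-25-MMH binding to purified anti-IL-25 antibodies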
Give just the number in h; leave the unit off.

Given the binder H4H10897P (antibody, human IgG4, V domains shown) VH: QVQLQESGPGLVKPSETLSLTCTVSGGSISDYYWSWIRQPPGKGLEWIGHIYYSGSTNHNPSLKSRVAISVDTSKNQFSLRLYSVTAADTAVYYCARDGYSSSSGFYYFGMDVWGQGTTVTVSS VL: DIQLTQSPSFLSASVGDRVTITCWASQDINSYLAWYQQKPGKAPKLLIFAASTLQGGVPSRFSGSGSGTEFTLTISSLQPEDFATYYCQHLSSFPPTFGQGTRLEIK , what is its reported t½?
2.28

Given the binder H4H10861P (antibody, human IgG4, V domains shown) VH: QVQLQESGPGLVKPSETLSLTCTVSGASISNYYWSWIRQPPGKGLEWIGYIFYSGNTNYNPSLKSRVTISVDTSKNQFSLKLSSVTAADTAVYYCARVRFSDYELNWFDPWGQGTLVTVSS VL: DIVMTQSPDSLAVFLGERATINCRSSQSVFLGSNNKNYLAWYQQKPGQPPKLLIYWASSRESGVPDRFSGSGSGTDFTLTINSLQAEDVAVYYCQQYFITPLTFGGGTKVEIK , what is its reported t½?
13

Given the binder H4H10905P (antibody, human IgG4, V domains shown) VH: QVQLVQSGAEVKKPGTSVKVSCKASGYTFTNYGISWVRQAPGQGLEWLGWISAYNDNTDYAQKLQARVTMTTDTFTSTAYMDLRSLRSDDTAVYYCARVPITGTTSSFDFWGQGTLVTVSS VL: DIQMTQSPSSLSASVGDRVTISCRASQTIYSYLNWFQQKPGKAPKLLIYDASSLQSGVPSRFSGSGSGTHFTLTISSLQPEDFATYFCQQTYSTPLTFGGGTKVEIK , what is its reported t½?
2.48

Given the binder H4H10876P (antibody, human IgG4, V domains shown) VH: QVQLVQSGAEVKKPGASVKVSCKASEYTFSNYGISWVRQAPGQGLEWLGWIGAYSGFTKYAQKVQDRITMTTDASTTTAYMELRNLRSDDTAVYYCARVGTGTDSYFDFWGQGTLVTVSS VL: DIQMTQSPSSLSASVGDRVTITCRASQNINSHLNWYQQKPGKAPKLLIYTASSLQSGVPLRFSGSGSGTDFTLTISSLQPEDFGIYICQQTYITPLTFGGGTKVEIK , what is its reported t½?
2.68

Given the binder H4H10883P (antibody, human IgG4, V domains shown) VH: QVQLQESGPGLVKSSETLSLTCTVSGGSISSYYWSWIRQPPGKGLEWIGFIYYSGSTNYNPSLKSRVTFSVDTSKNHFSLKLNSVTATDTAVYYCARHYFDSGTYELGPFDYWGQGTLVTVSS VL: DIVMTQSPDSLAVSLGERATINCKSSQNILLTSSNKNYLTWYQQKPGQPPKLLIYWASIRESGVPDRFSGSGSGTDFTLTISSLQAEDVALYFCQQYYITPFTFGPGTKVDIK , what is its reported t½?
19.2

FYI, the data here is from patent US20160083466A1.
